system: Septoria tritici; test: Test G: wheat leaf blotch, preventive spray on wheat seedlings, visual disease rating; conditions: Zymoseptoria tritici, in Triticum aestivum, 504 h, read-out: Test G disease control rating
READOUT: pest or weed control at 200 µg/mL (%)
Expressed in %, but write only the number.

Some solved entries appear below for comparison.
{"MOLECULE": "Cc1nn(C)c(Nc2c(F)cc(Cl)cc2F)c1-c1ccc(C#N)cc1Cl [Compound 336]", "pest or weed control at 200 µg/mL [%]": 100}
{"MOLECULE": "Cc1nn(C)c(Oc2ccc(C#N)cc2F)c1-c1c(F)cccc1F [Compound 361]", "pest or weed control at 200 µg/mL [%]": 100}

Q) Endpoint output: pest or weed control at 200 µg/mL of Cc1nn(C)c(Nc2c(F)cc(Br)cc2F)c1-c1ccc(F)cc1F [Compound 364] . Value?
A) 100

====

test system: Botrytis cinerea; assay: Test B: tomato Botrytis, preventive spray on tomato seedlings, visual disease rating; details: tomato Botrytis; 100 = 100% disease control, 0 = no control relative to controls
READOUT: Test B rating (% disease control) (%)
Number in %, nothing else.

{"STRUCTURE": "COc1cc(F)c(-c2c(C)nn(C)c2Oc2ccc(C)c(C#N)c2)c(F)c1", "TEST TARGET": "Botrytis cinerea", "READOUT": "Test B rating (% disease control)", "UNITS OF MEASURE": "%", "OBSERVED MEASUREMENT": 98}

Q) # query: Test B rating (% disease control) of entry COc1cc(F)c(-c2c(C)nn(C)c2Oc2ccc(Cl)c(OC)c2)c(F)c1
A) 77

Q) Name the reported Test B rating (% disease control) value associated with the compound COc1ccc(Nc2c(-c3ccc(F)cc3Cl)c(C)nn2C)cc1
A) 99

Q) Item COc1cccc(Nc2c(-c3c(F)cccc3F)c(C)nn2C)c1Cl has what recorded Test B rating (% disease control)?
A) 100

Q) Param item = COc1ccc(-c2c(C)nn(C)c2Nc2c(F)ccc(F)c2F)c(Cl)c1 ; retrieve measured Test B rating (% disease control).
A) 100

Q) What measured Test B rating (% disease control) goes with Cc1nn(C)c(Nc2ccc(F)cc2F)c1-c1c(F)cccc1Cl ?
A) 100

Q) What value of Test B rating (% disease control) has been reported for the following compound? Cc1nn(C)c(Oc2c(F)cc(C#N)cc2F)c1-c1cc(Cl)ccc1Cl
A) 97

Q) Would you mind telling me what Test B rating (% disease control) value was observed for Cc1nn(C)c(Nc2ncc(F)cc2F)c1-c1c(F)cccc1C(F)(F)F ?
A) 100

Q) Consider the compound COc1cc(Oc2c(-c3c(F)cc(F)cc3F)c(C)nn2C)ccc1Cl and give its measured Test B rating (% disease control).
A) 49

Q) Which Test B rating (% disease control) is listed for Cc1ncc(Nc2c(-c3ccc(F)cc3Cl)c(C)nn2C)cn1 ?
A) 80

Q) Which Test B rating (% disease control) value belongs to Cc1nn(C)c(Oc2cccc(C#N)c2)c1-c1c(F)cc(F)cc1F ?
A) 99

Q) Need Test B rating (% disease control) of Cc1nn(C)c(Nc2cccc(Cl)c2Cl)c1-c1ccc(F)cc1F , thanks.
A) 98

Q) Request the reported Test B rating (% disease control) associated with COc1cc(F)c(-c2c(C)nn(C)c2Oc2ccc(C)c(C)c2)c(F)c1
A) 0

Q) Query (compound): Cc1nn(C)c(Nc2cccc(F)c2F)c1-c1c(F)cccc1F ; field requested: Test B rating (% disease control)
A) 97

Q) Given the entry Cc1nn(C)c(Nc2ncc(F)cc2F)c1-c1ccc(F)cc1Cl , report its measured Test B rating (% disease control).
A) 99

Q) Look at this compound and give its reported Test B rating (% disease control). Cc1nn(C)c(Nc2ccc(F)cc2Cl)c1-c1c(F)cccc1C(F)(F)F
A) 99

Q) Any idea what Test B rating (% disease control) was measured for COc1cc(F)c(-c2c(C)nn(C)c2Oc2cccc(C)c2)c(F)c1 ?
A) 98

Q) Requested field: Test B rating (% disease control). Item: COc1cc(F)c(-c2c(C)nn(C)c2Oc2ccc(Cl)c(C)c2)c(F)c1
A) 0

Q) So what does the record say about Test B rating (% disease control) for Cc1nn(C)c(Oc2c(F)cc(C#N)cc2F)c1-c1ccccc1Cl ?
A) 100

Q) Recorded Test B rating (% disease control) of Cc1nn(C)c(Nc2ccc(F)c(C#N)c2)c1-c1ccc(F)cc1Cl , please.
A) 99

Q) Which Test B rating (% disease control) is listed for COc1ccc(-c2c(C)nn(C)c2Nc2ccc(F)cc2F)c(Cl)c1 ?
A) 98

These entries and their values trace back to patent US10448639B2.
